# assay target: full-length Tau (human Tau40wt) (Homo sapiens, UniProt P10636)
# Construct: full-length recombinant Tau (Tau40wt, 441 residues)
# Sequence (P10636 1-441 isoform P10636-8): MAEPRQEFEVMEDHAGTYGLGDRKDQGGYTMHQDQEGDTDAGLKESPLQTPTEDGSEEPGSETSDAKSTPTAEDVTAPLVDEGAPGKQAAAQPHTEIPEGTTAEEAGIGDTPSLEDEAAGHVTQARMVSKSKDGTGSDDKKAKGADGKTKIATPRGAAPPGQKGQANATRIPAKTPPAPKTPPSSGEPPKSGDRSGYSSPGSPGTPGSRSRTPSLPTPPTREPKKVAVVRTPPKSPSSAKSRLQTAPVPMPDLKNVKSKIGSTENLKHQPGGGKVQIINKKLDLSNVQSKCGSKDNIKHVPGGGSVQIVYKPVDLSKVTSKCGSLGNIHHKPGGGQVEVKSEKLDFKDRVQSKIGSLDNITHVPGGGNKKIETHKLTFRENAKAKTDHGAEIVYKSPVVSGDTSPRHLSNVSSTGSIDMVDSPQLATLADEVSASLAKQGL
# test method notes: isothermal titration calorimetry ([…] Tau titrated with […] EGCG)
measured quantity: Kd
Please state the value followed by its unit.

Under full-length Tau (human Tau40wt) (Homo sapiens, UniProt P10636): Kd value of O=C(O[C@@H]1Cc2c(O)cc(O)cc2O[C@@H]1c1cc(O)c(O)c(O)c1)c1cc(O)c(O)c(O)c1 ? 74 nM
